Data provenance: PubChem BioAssay (EPA / NIEHS)

# Read-out: Macrophage colony-stimulating factor (MCSF), CSF1 (gene 1435)
# experiment_description: BSK_hDFCGF_MCSF: BioMAP Diversity Plus: hDFCGF Assay for Macrophage colony-stimulating factor (MCSF) Biomarker Activity (AID 2283060)
# condition_context: primary human foreskin fibroblasts; actives raise or lower the signal
# Description: BSK_hDFCGF is a cell-based, multiplexed-readout assay that uses foreskin fibroblast, a human skin primary cell, with measurements taken at 24 hours after chemical dosing in a 96-well plate.BSK_hDFCGF_MCSF is an assay component measured in the BSK_hDFCGF assay. It measures M-CSF antibody related to regulation of gene expression using ELISA technology.Data from the assay component BSK_hDFCGF_MCSF was analyzed into 1 assay endpoint. […]
Calls of active or inactive are those of the source. How the source made its calls: active means hit-call score of the fitted dose curve at least 0.9, where 1 is the maximum; inactive means score below 0.9.
Labels: y for active, n for inactive

compound: CCC(C)c1ccccc1O (centres undefined)
label_class: n

compound: O=C(NCc1ncc(C(F)(F)F)cc1Cl)c1c(Cl)cccc1Cl
label_class: n

compound: O=C1NS(=O)(=O)c2ccccc21
label_class: n

compound: OCC(CO)(CBr)CBr
label_class: n

compound: O=C(O)CCC(F)(F)C(F)(F)C(F)(F)C(F)(F)C(F)(F)C(F)(F)F
label_class: n

compound: Cc1ccc(C(=O)c2ccccc2)cc1
label_class: y

compound: COc1cc(OC)nc(NC(=O)NS(=O)(=O)Nc2ccccc2C(=O)N(C)C)n1
label_class: n

compound: COc1cccc(O)c1
label_class: n

compound: C[C@]12CC[C@@H]3c4ccc(O)cc4CC[C@H]3[C@@H]1C[C@@H](O)[C@@H]2O
label_class: n

compound: CCCCCCCCCCCCCCC
label_class: n

compound: Cc1ccc(N=Nc2c(O)ccc3ccccc23)c(C)c1
label_class: y

compound: CN(C)c1ccc(C(=C2C=CC(=[N+](C)C)C=C2)c2ccccc2)cc1
label_class: y

compound: O=C(NO)c1ccccc1
label_class: n

compound: O=C(c1ccccc1)c1ccccc1
label_class: n

* * *

# experiment_description: ATG_NF_kB_CIS: Attagene CIS-FACTORIAL HepG2 Assay for human Nuclear Factor Kappa B (NF-kB) (AID 2282991)
# condition_context: HepG2 Attagene cis-factorial NF-kB reporter mRNA; actives raise or lower the signal
# Method: ATG_CIS is a cell-based, multiplexed-readout assay that uses HepG2, a human liver cell line, with measurements taken at 24 hours after chemical dosing in a 24-well plate.ATG_NF_kB_CIS is one of 52 assay component(s) measured or calculated from the ATG_CIS assay. […] This assay endpoint, ATG_NF_kB_CIS, was analyzed with bidirectional fitting relative to DMSO as the negative control and baseline of activity. […]
Active and inactive are the calls of the source. Rule for the calls: active = hit-call score of the fitted dose curve at least 0.9, where 1 is the maximum; inactive = score below 0.9.
Labels: true (1) for active, false (0) for inactive

compound: C=CC(=O)OCC(CO)(COCC(COC(=O)C=C)(COC(=O)C=C)COC(=O)C=C)COC(=O)C=C
label_class: true (1)
//
compound: FC(F)(F)C(F)(F)C(F)(F)C(F)(F)I
label_class: false (0)
//
compound: CCC(=O)O
label_class: false (0)
//
compound: C=COC(=O)C(C)(C)CCCCCC
label_class: false (0)
//
compound: FC(OC(F)(F)C(F)(F)C(F)(F)F)C(F)(F)F (stereo not given)
label_class: false (0)
//
compound: Brc1cc(Br)c(Oc2c(Br)cc(Br)c(Br)c2Br)cc1Br
label_class: false (0)
//
compound: OCC1CCC(CO)CC1 (stereo not given)
label_class: false (0)
//
compound: O=C(O)c1cccc(C(=O)O)n1
label_class: false (0)
//
compound: C=CC(=O)OCCN(CC)CC
label_class: false (0)
//
compound: CCOC(C)=O
label_class: false (0)
//
compound: O=P(O)(O)CCC(F)(F)C(F)(F)C(F)(F)C(F)(F)C(F)(F)C(F)(F)C(F)(F)C(F)(F)F
label_class: false (0)
//
compound: CCCCC=O
label_class: false (0)
//
compound: CCC(=O)C=Cc1ccc(OC)cc1
label_class: true (1)
//
compound: O=C1c2ccc(O)c(O)c2C(=O)c2c(O)ccc(O)c21
label_class: true (1)
//
compound: O=C(F)C(F)(F)C(F)(F)C(F)(F)C(F)F
label_class: false (0)
//
compound: CC(C)(C)c1ccc(CCC=O)cc1
label_class: false (0)
//
compound: CCOC=C(C(=O)OCC)C(=O)OCC
label_class: false (0)
//
compound: CC(C)[C@@H]1CC[C@@H](C)C[C@H]1O
label_class: false (0)
//
compound: CCCCCCCCC1CCC(=O)O1 (stereo not given)
label_class: false (0)
//
compound: CC(=O)Nc1ccc(S(N)(=O)=O)cc1
label_class: false (0)
//
compound: C/C=C/C(=O)C1=C(C)CCCC1(C)C
label_class: false (0)
//
compound: CCOC=O
label_class: false (0)
//
compound: OCC(CO)(CBr)CBr
label_class: false (0)
//
compound: O=S(=O)(O)c1ccc2cc(O)ccc2c1
label_class: false (0)
//
compound: CC=O
label_class: false (0)
//
compound: COc1cccc(O)c1
label_class: false (0)
//
compound: NCc1cccc(CN)c1
label_class: false (0)
//
compound: CCOC(=O)c1nc(C(Cl)(Cl)Cl)n(-c2ccc(Cl)cc2Cl)n1
label_class: false (0)
//
compound: FC1(F)C=CC(F)(F)C1(F)F
label_class: false (0)
//
compound: CCCCCCCCCCCC(=O)NCCCN(C)C
label_class: false (0)
